- test_protocol: in vivo;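 note: Single-dose crossover across four periods with one-week washout, plasma drug levels quantified by LC-MS/MS in positive ESI mode, lower quantification limit 0.2 ng/mL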
- test_settings: both, Beagle, dog, plasma, other: supralingual, 1 mg
measure_name: AUC(0-inf) (ng·h/mL)
Report the figure in ng·h/mL without appending any unit label.

Summary for this compound, Cc1nc2n(c(=O)c1CCN1CCC(c3noc4cc(F)ccc34)CC1)CCCC2 [risperidone] : AUC(0-inf) is 102

---

- test_protocol: in vivo
- test_settings: both, Beagle, dog, plasma, iv, 1 mg
measure_name: half-life (h)
The reply should be a number in h, with the unit left off.

The reported value for Cc1nc2n(c(=O)c1CCN1CCC(c3noc4cc(F)ccc34)CC1)CCCC2 [risperidone] in terms of half-life is 1.37

---

- test_protocol: in vivo
- test_settings: both, Beagle, dog, plasma, other: supralingual, 1 mg
measure_name: AUC(0-t) (ng·h/mL)
Write the value in ng·h/mL as a bare number.

AUC(0-t) for Cc1nc2n(c(=O)c1CCN1CCC(c3noc4cc(F)ccc34)CC1)CCCC2 is 97.3

---

- test_protocol: in vivo
- test_settings: both, Beagle, dog, plasma, other: supralingual, 1 mg
measure_name: Cmax (ng/mL)
Field format: number, assumed ng/mL, no unit text.

Documented Cmax of Cc1nc2n(c(=O)c1CCN1CCC(c3noc4cc(F)ccc34)CC1)CCCC2 : 59.4

---

- test_protocol: in vivo
- test_settings: both, Beagle, dog, plasma, 1 mg
measure_name: clearance (mL/min)
Give just the numeric value; mL/min need not be written.

Data point: Cc1nc2n(c(=O)c1CCN1CCC(c3noc4cc(F)ccc34)CC1)CCCC2 [risperidone] ; clearance = 184

---

- test_protocol: in vivo
- test_settings: both, Beagle, dog, plasma, po, 1 mg
measure_name: AUC(0-t) (ng·h/mL)
Please reply with the bare figure in ng·h/mL and do not write the unit itself.

// AUC(0-t) lookup, molecule = Cc1nc2n(c(=O)c1CCN1CCC(c3noc4cc(F)ccc34)CC1)CCCC2 , result: 90

---

- test_protocol: in vivo
- test_settings: both, Beagle, dog, plasma, 1 mg
measure_name: MRT inf (h)
# unit: h | format: bare number

// field: MRT inf; key: Cc1nc2n(c(=O)c1CCN1CCC(c3noc4cc(F)ccc34)CC1)CCCC2 ; value = 1.93

---

- test_protocol: in vivo
- test_settings: both, Beagle, dog, plasma, 1 mg
measure_name: Tmax (min)
Report only the number, with the unit min understood.

Sample Cc1nc2n(c(=O)c1CCN1CCC(c3noc4cc(F)ccc34)CC1)CCCC2 ; Tmax observed: 40.2

---

- test_protocol: in vivo
- test_settings: both, Beagle, dog, plasma, iv, 1 mg
measure_name: MRT last (h)
Write it as a number; the unit h goes unstated.

Lab note: measured MRT last of Cc1nc2n(c(=O)c1CCN1CCC(c3noc4cc(F)ccc34)CC1)CCCC2 was 1.3

---

- test_protocol: in vivo
- test_settings: both, Beagle, dog, plasma, other: supralingual, 1 mg
measure_name: clearance (mL/min)
Return type: number; implicit unit mL/min.

Record Cc1nc2n(c(=O)c1CCN1CCC(c3noc4cc(F)ccc34)CC1)CCCC2 [risperidone] . Reported clearance: 199

---

- test_protocol: in vivo
- test_settings: both, Beagle, dog, plasma, other: supralingual, 1 mg
measure_name: Tmax (min)
State just the number; it will be interpreted in min.

Record Cc1nc2n(c(=O)c1CCN1CCC(c3noc4cc(F)ccc34)CC1)CCCC2 , field Tmax: 37.2
